Source listed as patent EP4759815A1.

Hi! I'm sharing some IC50 results obtained with UniProtKB Q14432.
Sequence (Q14432 whole entry, species assumed): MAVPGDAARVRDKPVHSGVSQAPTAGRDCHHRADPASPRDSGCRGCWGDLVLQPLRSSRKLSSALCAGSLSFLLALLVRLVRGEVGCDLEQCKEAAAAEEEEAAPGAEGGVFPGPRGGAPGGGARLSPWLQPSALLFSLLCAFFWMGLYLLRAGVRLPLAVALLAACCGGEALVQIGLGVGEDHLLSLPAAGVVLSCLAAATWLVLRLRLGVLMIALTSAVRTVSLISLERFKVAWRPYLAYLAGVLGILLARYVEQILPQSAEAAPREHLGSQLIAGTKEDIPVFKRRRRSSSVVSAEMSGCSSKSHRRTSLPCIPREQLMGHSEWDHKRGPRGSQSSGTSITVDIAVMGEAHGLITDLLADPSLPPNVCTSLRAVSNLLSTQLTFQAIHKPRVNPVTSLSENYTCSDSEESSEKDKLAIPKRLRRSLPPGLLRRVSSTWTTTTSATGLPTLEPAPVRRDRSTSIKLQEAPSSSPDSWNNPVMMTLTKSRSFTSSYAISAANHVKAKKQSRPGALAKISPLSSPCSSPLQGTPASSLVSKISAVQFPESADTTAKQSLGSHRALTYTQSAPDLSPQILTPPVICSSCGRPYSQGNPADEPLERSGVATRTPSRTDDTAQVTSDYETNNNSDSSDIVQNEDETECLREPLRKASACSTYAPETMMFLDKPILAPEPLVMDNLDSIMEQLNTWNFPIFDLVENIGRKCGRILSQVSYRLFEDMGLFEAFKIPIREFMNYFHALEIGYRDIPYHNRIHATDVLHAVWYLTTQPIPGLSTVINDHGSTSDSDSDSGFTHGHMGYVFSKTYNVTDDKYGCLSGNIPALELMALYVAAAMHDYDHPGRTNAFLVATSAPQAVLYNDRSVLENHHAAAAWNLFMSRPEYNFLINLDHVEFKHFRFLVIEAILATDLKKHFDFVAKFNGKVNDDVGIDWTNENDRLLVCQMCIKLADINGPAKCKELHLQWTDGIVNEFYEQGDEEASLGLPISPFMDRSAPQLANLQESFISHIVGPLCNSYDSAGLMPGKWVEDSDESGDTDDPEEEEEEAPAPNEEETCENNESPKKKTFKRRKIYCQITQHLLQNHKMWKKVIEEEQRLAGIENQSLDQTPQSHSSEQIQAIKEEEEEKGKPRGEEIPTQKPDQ
Give your result in nM as a bare value.

The following compounds have reported results that may help.
{"compound": "CNC(=O)c1ccc(N2CCN(Cc3cc4c5c(cnn5[C@H](C)C(=O)N4)c3)CC2)c(Cl)n1 [Compound 6-2]", "study target": "UniProtKB Q14432", "unit name": "nM", "IC50": 239}
{"compound": "CNC(=O)c1ccc(N2CCN(Cc3cc4c5c(cnn5c3)N(C3CC3)C(=O)N4)CC2)c(C)n1 [Compound 54]", "study target": "UniProtKB Q14432", "unit name": "nM", "IC50": 428}
{"compound": "CNC(=O)c1ccc(N2CCN(Cc3cc4c5c(cnn5c3)N(CC(F)(F)F)C(=O)N4)CC2)c(C)n1 [Compound 61]", "study target": "UniProtKB Q14432", "unit name": "nM", "IC50": 1440}
{"compound": "CNC(=O)c1ccc(N2CCN(Cc3cc4c5c(cnn5c3)N(C(C)C)C(=O)N4)CC2)c(C)n1 [Compound 56]", "study target": "UniProtKB Q14432", "unit name": "nM", "IC50": 878}

Now for another entry.
Q: # lookup: IC50 of CNC(=O)c1ccc(N2CCN(Cc3cc4c5c(cnn5C5(CC5)C(=O)N4)c3)C[C@H]2C)c(C)n1 [Compound 40]
A: 635
